B1: minF1; the commonest letter at each place (parent)
chain: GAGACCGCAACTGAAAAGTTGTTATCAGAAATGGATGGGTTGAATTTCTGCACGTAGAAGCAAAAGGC

# Variants of: B1
# assay-details: fraction ligated after 30 min (ligated reads / total reads); higher = more ligase activity
# measurement-context: with F1*subA RNA substrate (template-directed ligation), 42 °C
endpoint-name: fraction ligated
Reply briefly: the number, and no unit.

Completed entries (count: 5):
variant-description	endpoint-name	result-number
A30T A43T	fraction ligated	0.0685
A30G G34A	fraction ligated	0.0439
A29C A35C	fraction ligated	0.00361
T25A	fraction ligated	0.00703
A24C G28T	fraction ligated	0.0617

Prompt: Look up fraction ligated for this variant: A27T A44G
Response: 0.825

Prompt: What measured fraction ligated goes with T25C A44T ?
Response: 0.0143

Prompt: Using the record for A44T , report its fraction ligated.
Response: 0.794

Prompt: What measured fraction ligated goes with T23C G34C ?
Response: 0.0023

Prompt: Need fraction ligated, item A30C T36A
Response: 0.0266

Source of measurements: the supplement of paper PMC6755084
